# credit: the RNAGym collection of RNA variant scans (doi:10.1126/science.aae0568)

B1: tRNA (parent)
chain: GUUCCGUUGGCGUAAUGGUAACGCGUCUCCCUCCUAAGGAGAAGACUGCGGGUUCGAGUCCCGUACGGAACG

# Variants of: B1
# assay.name: yeast fitness relative to wild type (ratio to wild type); higher = fitter; tRNA-Arg(CCU), competitive growth, 37 C, YPD
Fewer inactive variants are shown than the library holds.
Quick list: yeast fitness per entry.

Please review the following examples before continuing.
| entry.sequence | property | assay.result |
| --- | --- | --- |
| GUUCUGUUGGUGUAAUGGUAACGCGUCUCCCGACUAAGGAGAAGACAGCGGGUUCGAGUCCUGUAGGGAACG [C5U C11U U32G C33A U47A C62U C66G] | yeast fitness | ≤ 0.5 |
| GAUCCGUUGGCGUAAUGGUAACGCGUCUCCCUCCUAAGGAGAAGACUGCGGAUUCGAGUCACGUACGGAACG [U2A G52A C61A] | yeast fitness | ≤ 0.5 |
| GUUCCGGUGGCGUAAUGGUAACGCGUCUCCGUCCUCAGGAGAAGACUGCGGGUUCGAGUCCCGUACGGAACG [U7G C31G A36C] | yeast fitness | ≤ 0.5 |
| GUUCCGUUGGCGUAAUGGUAGCGCGUCUCCCUCCUAAGGCGAAGACUGCCGGUUCGAGUCCCGUACGGAACG [A21G A40C G50C] | yeast fitness | ≤ 0.5 |
| GUUCCGUUGGCGCAAUGGUAACGCGUGUCCCUCCUGAGGAGAAGACUGCGGGUGCGAGUCCCGUACGGAACG [U13C C27G A36G U54G] | yeast fitness | ≤ 0.5 |
| GUUCCGUUGGCGUAAUGGUAAGGCGUGUCCGUCCUAAGGAGAAGACUGCGGGUUCGAGUUCCGUACGGAACG [C22G C27G C31G C60U] | yeast fitness | ≤ 0.5 |

Request: Can you look up the measured yeast fitness of GUUCCGUUGGCGUAAUGGUAACGCGUCUCUCUCUUAUGGAGAAGACUGCGGGUUCGAGCCCCGUUCGGAACG [C30U C34U A37U U59C A65U] for me?
Result: ≤ 0.5

Request: Can you look up the measured yeast fitness of GUUCCGCUGGCGUAAUGCUAACGCGUCUCCCUCCUAAGGAGAAGACUGCGGGUUCGAGUCUCGUACGGAACG [U7C G18C C61U] for me?
Result: ≤ 0.5

Request: Can you look up the measured yeast fitness of GUUCCGUUAGCCUAAUGGUAACGCGUCUCCAUGCUAAGGAGAAGGCUGCGGGUUCGAGUCCCGUACGGAUCG [G9A G12C C31A C33G A45G A70U] for me?
Result: ≤ 0.5

Request: Can you look up the measured yeast fitness of GUUCCGUUAGGGUAAUGGUAACGGGUCUCCCUCCUAAGGAGUAGACUGCGGGUUCGAGUCCCGUACGGAACG [G9A C11G C24G A42U] for me?
Result: ≤ 0.5

Request: Can you look up the measured yeast fitness of GUUCCGUUGGCGUAAUGGUUACGCGUCUCCCUCCUAAGGAGUAGACUGCGGGUUCGAGUCCCGUACACAACG [A20U A42U G67A G68C] for me?
Result: ≤ 0.5

Request: Can you look up the measured yeast fitness of GUUCCGUAGGCAUAAUGGUAAAGCGUCUCCGUCCUAAGGAGAAGACUGCGGGUUCGAAUCACGUACGGAACG [U8A G12A C22A C31G G58A C61A] for me?
Result: ≤ 0.5

Request: Can you look up the measured yeast fitness of GUUCCGAUGCCGUAAUGGUAACGCGUCUCCCUCCUAAGGAAAAGACUGCGGGUUCGAGUCCCGUACGGAACG [U7A G10C G41A] for me?
Result: ≤ 0.5
